Target: ETA (Oryctolagus cuniculus, UniProt A5A8K3)
Sequence (A5A8K3 21-427): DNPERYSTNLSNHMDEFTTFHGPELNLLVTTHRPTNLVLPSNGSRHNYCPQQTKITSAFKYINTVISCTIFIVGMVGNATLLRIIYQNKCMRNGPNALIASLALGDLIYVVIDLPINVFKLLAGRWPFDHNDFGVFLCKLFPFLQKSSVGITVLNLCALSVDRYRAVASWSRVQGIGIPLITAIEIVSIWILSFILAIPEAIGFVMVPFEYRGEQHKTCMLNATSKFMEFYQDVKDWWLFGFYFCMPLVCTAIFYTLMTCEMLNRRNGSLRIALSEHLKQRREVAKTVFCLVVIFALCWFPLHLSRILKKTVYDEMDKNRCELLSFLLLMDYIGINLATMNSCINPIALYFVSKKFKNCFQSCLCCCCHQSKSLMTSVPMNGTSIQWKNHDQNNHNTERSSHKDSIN
Experiment: VERA-A: antagonism of ET-1 stimulated vasoconstriction in the rabbit femoral artery (ETA)
Format: cell-based
Conditions: ET-1, rabbit femoral artery; read-out: VERA-A pA2 (converted)
Measurement Label: Kb (µM)
All answers are understood in µM, so give the number only.

COc1ccc(C(=O)/C(Cc2ccccc2OC)=C(\C(=O)O)c2ccc3c(c2)OCO3)cc1 : 0.251
COc1ccc(C2(O)OC(=O)C(c3ccc4c(c3)OCO4)=C2Cc2ccccc2)c(OC)c1 (stereo not drawn) [Example 241] : 0.631
COc1ccc(CC2=C(c3cc(OC)cc(OC)c3)C(=O)OC2(O)c2ccc(OC)cc2)cc1 (stereo not drawn) [Example 131] : 0.501
C=CCOc1cc(CC2=C(c3cc(OC)cc(OC)c3)C(=O)OC2(O)c2ccc(OC)cc2)ccc1OC (stereo not drawn) [Example 135] : 0.126

The compound listed as COc1cc(OC)cc(C2=C(Cc3cc(OC)c(OC)c(OC)c3)C(O)(c3ccc(OC)c(C)c3)OC2=O)c1 (stereo not drawn) [Example 382] has a reported Kb of 0.158

# Kb of COc1ccc(C2(O)OC(=O)C(c3cc(OC)c4c(c3)OCO4)=C2Cc2cc(OC)c(OC)c(OC)c2)cc1C (stereo not drawn) [Example 361] = 0.0398

Lab note: CCCCOc1ccc(CC2=C(c3ccc4c(c3)OCO4)C(=O)OC2(O)c2ccc(OC)cc2)cc1 (stereo not drawn) [Example 93] gave Kb of 1

Short answer for COc1ccc(C2(O)OC(=O)C(c3ccc4c(c3)OCO4)=C2Cc2ccc(NC(C)=O)cc2)cc1 (stereo not drawn) [Example 80] : Kb was 0.0631

---

Biological target: ETB (Rattus norvegicus)
Sequence (P21451 27-442): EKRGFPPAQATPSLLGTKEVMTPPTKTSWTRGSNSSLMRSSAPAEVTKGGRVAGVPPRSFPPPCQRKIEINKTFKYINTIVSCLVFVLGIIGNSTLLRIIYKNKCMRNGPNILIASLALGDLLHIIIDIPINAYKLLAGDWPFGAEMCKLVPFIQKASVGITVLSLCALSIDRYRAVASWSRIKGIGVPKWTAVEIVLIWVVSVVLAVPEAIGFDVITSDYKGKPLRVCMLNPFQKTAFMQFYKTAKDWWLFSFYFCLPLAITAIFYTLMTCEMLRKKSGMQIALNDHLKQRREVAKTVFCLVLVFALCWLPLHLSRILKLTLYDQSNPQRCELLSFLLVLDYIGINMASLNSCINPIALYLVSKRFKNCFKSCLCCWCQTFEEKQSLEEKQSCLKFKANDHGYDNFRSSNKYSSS
pIC50: −log10 of the molar value.
Hi all, reminder that labels come from pIC50, split as low group (below 5), middle group (5 to below 6), high group (6 or more)

O=C1OC(O)(c2c(F)cccc2F)C(Cc2ccccc2)=C1c1ccc2c(c1)OCO2 (stereo not drawn) : low group
COc1ccc(C2(O)OC(=O)C(c3cc(OC)cc(OC)c3)=C2Cc2ccccc2)cc1 (stereo not drawn) : high group
Cc1cccc(CC2=C(c3ccc4c(c3)OCO4)C(=O)OC2(O)c2ccc(Cl)cc2)c1 (stereo not drawn) : middle group

Q) Record O=C1OC(O)(c2ccc(Cl)cc2)C(Cc2cccs2)=C1c1ccc2c(c1)OCO2 (stereo not drawn) — which class?
A) middle group

Q) Tag the class for COc1ccc(C2=C(Cc3ccc(N(C)C)cc3)C(O)(c3ccc(Cl)cc3)OC2=O)cc1OC (racemic)
A) middle group

Q) Category lookup for the compound COc1ccc(C2(O)OC(=O)C(c3ccc4c(c3)OCO4)=C2Cc2ccc(C)cc2)cc1 (stereo not drawn)
A) high group

Q) Sort into band: O=C1OC(O)(c2ccccc2)C(Cc2cccs2)=C1c1ccc2c(c1)OCO2 (stereo not drawn)
A) low group

Q) Which class is correct for the following compound? O=C1OC(O)(c2ccccc2)C(Cc2ccsc2)=C1c1ccc2c(c1)OCO2 (stereo not drawn)
A) low group

Q) For C=CCOc1cc(CC2=C(c3cc(OC)cc(OC)c3)C(=O)OC2(O)c2ccc(OC)cc2)ccc1OC (stereo not drawn) , which pIC50 bin applies?
A) high group

Q) State the band of CCCOc1cccc(CC2=C(c3ccc4c(c3)OCO4)C(=O)OC2(O)c2ccc(OC)cc2)c1 (stereo not drawn)
A) high group

Q) Band assignment needed for COc1ccc(C2(O)OC(=O)C(c3ccc4c(c3)OCO4)=C2Cc2ccc(Br)cc2)cc1 (stereo not drawn) please.
A) high group

---

Biological target: human ETB receptor (Homo sapiens, UniProt P24530)
Construct: expressed in transfected cells; host or cells: CHO-K1 cells, pRc-CMW (so in the source) expression vector, electroporation; membranes used
Sequence (P24530 27-442): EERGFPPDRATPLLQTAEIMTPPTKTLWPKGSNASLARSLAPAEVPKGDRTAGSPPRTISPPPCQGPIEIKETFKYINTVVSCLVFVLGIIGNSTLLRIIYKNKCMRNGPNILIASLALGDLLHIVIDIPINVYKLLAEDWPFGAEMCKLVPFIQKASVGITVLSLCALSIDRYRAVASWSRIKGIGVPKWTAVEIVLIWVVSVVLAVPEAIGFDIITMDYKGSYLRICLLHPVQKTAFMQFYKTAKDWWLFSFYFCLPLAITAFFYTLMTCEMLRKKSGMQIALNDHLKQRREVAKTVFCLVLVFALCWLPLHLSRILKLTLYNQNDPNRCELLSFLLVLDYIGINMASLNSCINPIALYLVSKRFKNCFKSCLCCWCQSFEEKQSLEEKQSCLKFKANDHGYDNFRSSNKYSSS
Assay: ERBA-B: [125I]-ET-1 binding, recombinant human ETB receptor expressed in CHO-K1 cells
Conditions: human cloned ETB receptor, read-out: ERBA-B IC50, human cloned receptor data
Listing of recorded IC50 by entry.
The answer is to be given in µM; state only the numeric part.

Input COc1ccc(CC2=C(c3ccc(Cl)c(Cl)c3)C(=O)OC2(O)c2ccc(OC)cc2)cc1 (centres unmarked) . Output IC50: 2.7

---

This listing pairs compounds with measured IC50.
Molecular target: ETA (Oryctolagus cuniculus)
Conditions: ERBA-A IC50, [125I]-ET-1, rabbit renal artery vascular smooth muscle cells
Give the number; nM is assumed, so skip it.

Study these solved cases before continuing.
COc1ccc(CC2=C(c3ccc4c(c3)OCO4)C(=O)OC2(O)c2ccc(Cl)cc2)cc1 (stereo not drawn) : 1000
COc1ccc(C2(O)OC(=O)C(c3ccc4c(c3)OCO4)=C2Cc2ccc(OCc3ccccc3)c(OC)c2)cc1 (stereo not drawn) : 18
CCCCCCCCOc1c(C)cc(CC2=C(c3ccc4c(c3)OCO4)C(=O)OC2(O)c2ccc(OC)cc2)cc1C (stereo not drawn) : 2300
Cc1ccc(CC2=C(c3ccc4c(c3)OCO4)C(=O)OC2(O)c2ccc(Cl)cc2)cc1 (stereo not drawn) : 3500
CCC1=C(c2ccc3c(c2)OCO3)C(=O)OC1(O)c1ccc(OC)cc1 (stereo not drawn) : 530

The recorded IC50 for entry COc1ccc(C2(O)OC(=O)C(c3ccc4c(c3)OCO4)=C2Cc2ccc(OC)cc2OCC(=O)O)cc1 (stereo not drawn) equals 380

So for COc1ccc(C(=O)/C(Cc2ccccc2)=C(\C(=O)O)c2ccc3c(c2)OCO3)cc1C , the logged IC50 turned out to be 42

Quick note, IC50 for C=CCOc1cc(CC2=C(c3cc(OC)cc(OC)c3)C(=O)OC2(O)c2ccc(OC)cc2)ccc1OC (stereo not drawn) landed at 9

response.value for CN(C)c1ccc(CC2=C(c3ccc(Cl)c(Cl)c3)C(=O)OC2(O)c2ccc(Cl)cc2)cc1 (stereo not drawn) (field: IC50) = 5800

---

Target: ETA (Oryctolagus cuniculus, UniProt A5A8K3)
Sequence (A5A8K3 21-427): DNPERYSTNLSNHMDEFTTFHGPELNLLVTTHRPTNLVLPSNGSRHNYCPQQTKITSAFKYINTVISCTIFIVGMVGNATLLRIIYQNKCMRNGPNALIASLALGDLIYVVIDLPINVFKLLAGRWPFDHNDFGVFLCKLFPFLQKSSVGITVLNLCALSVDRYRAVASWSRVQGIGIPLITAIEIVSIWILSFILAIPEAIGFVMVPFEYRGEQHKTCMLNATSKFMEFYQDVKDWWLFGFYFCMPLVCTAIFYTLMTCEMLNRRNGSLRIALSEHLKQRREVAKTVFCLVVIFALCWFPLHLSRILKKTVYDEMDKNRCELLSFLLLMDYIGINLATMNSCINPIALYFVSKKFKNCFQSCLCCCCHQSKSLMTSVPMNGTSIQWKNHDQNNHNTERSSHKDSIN
Conditions: ERBA-A IC50, [125I]-ET-1, rabbit renal artery vascular smooth muscle cells
Rule: IC50 below 30 nM gives t, anything at or above gives f.

CCOC(=O)COc1c(OC)cc(CC2=C(c3ccc4c(c3)OCO4)C(=O)OC2(O)c2ccc(OC)cc2)cc1OC (stereo not drawn) : t

Q) Would you kindly verify if IC50 of COc1ccc(C2(O)OC(=O)C(c3cc(OC)cc(OC)c3)=C2Cc2ccccc2)cc1 (stereo not drawn) is strictly less than 30 nM?
A) t

Q) Input COc1ccc(C2(O)OC(=O)C(c3ccc4c(c3)OCO4)=C2Cc2cc(C)c(OC)c(C)c2)cc1 (stereo not drawn) ; condition: IC50 strictly below 30 nM. Does it hold?
A) t

Q) Determine whether this compound shows IC50 lower than 30 nM (ties excluded): COC(=O)c1ccc(C2(O)OC(=O)C(c3ccc4c(c3)OCO4)=C2Cc2ccccc2)cc1 (stereo not drawn)
A) f

Q) Is it true that IC50 reported for COc1ccc(C2(O)OC(=O)C(c3ccc4c(c3)OCO4)=C2Cc2ccc(OC(C)C)c(C)c2)cc1C (stereo not drawn) is less than 30 nM?
A) t

Q) Does COc1ccc(C2(O)OC(=O)C(c3cc(OC)cc(OC)c3)=C2Cc2ccc(OC(C)C)c(OC)c2)cc1 (stereo not drawn) have IC50 strictly under 30 nM?
A) t
